Measured Emax of individual entries
Target: ligand binding domain of human FXR (Homo sapiens, UniProt Q96RI1)
Construct: purchased Thermofisher (LanthaScreen) PV4833
Sequence (Q96RI1 262-486 limits assumed): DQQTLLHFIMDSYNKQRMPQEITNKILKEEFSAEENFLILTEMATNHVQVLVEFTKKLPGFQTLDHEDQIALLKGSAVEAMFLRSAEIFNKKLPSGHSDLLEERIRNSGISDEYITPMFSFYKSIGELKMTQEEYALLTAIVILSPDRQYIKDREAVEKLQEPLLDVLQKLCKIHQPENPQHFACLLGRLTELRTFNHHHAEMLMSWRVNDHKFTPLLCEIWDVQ
Assay: biochemical
Conditions: extent of activation relative to GW4064; read-out: Ligand Binding % Efficacy
Experimental: The affinity of FXR ligands for the ligand binding domain of FXR was determined using a commercially available human FXR ligand binding assay (LanthaScreen, Thermofisher Cat #PV4833). […] Test compounds are dissolved in DMSO and a 3-fold serial dilution series is generated, then further diluted into assay buffer. […] The reaction is incubated at room temperature for 1 hour, then the FRET signal is measured as the ratio of the 520 nm/495 nm emission following excitation at 340 nm. […]

molecule | Emax [%]
Cc1cccc(C)c1-n1ncc(C2CC2)c1CO[C@@H]1C[C@@H]2C[C@H]1CN2c1ccc(CCC(=O)O)cc1F [Compound I-36] | 134
C[C@@H]1[C@@H]2C[C@@H](C[C@H]2OCc2c(C3CC3)cnn2-c2c(Cl)cccc2Cl)N1c1ccc(C(=O)O)cc1 [Compound I-14] | 48
O=C(O)c1cc(OC2CC2)c2nc(N3C[C@@H]4C[C@H]3C[C@H]4OCc3c(-c4c(Cl)cccc4Cl)cnn3C3CC3)sc2c1 [Compound I-48] | 88
O=C(O)c1cc(OC(F)(F)F)c2nc(N3C[C@@H]4C[C@H]3C[C@H]4OCc3c(-c4c(Cl)cccc4Cl)nnn3C3CC3)sc2c1 [Compound I-63] | 180
CC[C@H]1[C@H]2C[C@H](C[C@@H]2OCc2c(C3CC3)cnn2-c2c(Cl)cccc2Cl)N1c1ccc(C(=O)O)c(F)c1 [Compound I-19] | 30
O=C(O)c1cc([C@H]2CCOC2)c2nc(N3C[C@@H]4C[C@H]3C[C@H]4OCc3c(-c4c(Cl)cccc4Cl)cnn3C3CC3)sc2c1 (single isomer, unassigned) [Compound I-51] | 96
O=C(O)c1cc([C@@H]2CCOC2)c2nc(N3C[C@@H]4C[C@H]3C[C@H]4OCc3c(-c4c(Cl)cccc4Cl)cnn3C3CC3)sc2c1 (single isomer, unassigned) [Compound I-50] | 78
O=C(O)c1ncc(N2C[C@@H]3C[C@H]2C[C@H]3OCc2c(C3CC3)cnn2-c2c(Cl)cccc2Cl)cn1 [Compound I-6] | 101
O=C(NS(=O)(=O)C1CC1)c1ccc(N2C[C@@H]3C[C@H]2C[C@H]3OCc2c(C3CC3)cnn2-c2c(Cl)cccc2Cl)cc1 [Compound I-22] | 166
O=C(O)c1ccc(N2C(=O)[C@@H]3C[C@H]2C[C@H]3OCc2c(C3CC3)cnn2-c2c(Cl)cccc2Cl)cc1 [Compound I-11] | 152
O=C(O)c1cc(O[C@H]2CCOC2)c2nc(N3C[C@@H]4C[C@H]3C[C@H]4OCc3c(C4CC4)nnn3-c3c(Cl)cccc3Cl)sc2c1 [Compound I-61] | 158
O=C(NS(=O)(=O)C1CCOCC1)c1ccc(N2C[C@@H]3C[C@H]2C[C@H]3OCc2c(C3CC3)cnn2-c2c(Cl)cccc2Cl)cc1 [Compound I-20] | 147
